Recorded IC50 values for a group of molecules are listed next.
Assayed system: RON kinase (Homo sapiens)
Where a name gives a salt, the structure may show the parent alone.

Molecule	Assayed system	Unit info	IC50
CCOc1ccn(-c2cccc(OC)c2)c(=O)c1C(=O)Nc1ccc(Oc2ccnc3cc(-c4ccc(CNCCOC)cn4)sc23)c(F)c1 [Example 16, Hydrochloride]	RON kinase (Homo sapiens)	nM	3.43
CCOc1ccn(-c2ccc(F)cc2)c(=O)c1C(=O)Nc1ccc(Oc2ccnc3cc(-c4ccc(CN(C)CCOC)cn4)sc23)c(F)c1 [Example 30, Hydrochloride]	RON kinase (Homo sapiens)	nM	0.88
CCOc1ccn(-c2ccccc2)c(=O)c1C(=O)Nc1ccc(Oc2ccnc3cc(-c4ccc(CNCCOC)cn4)sc23)c(F)c1.Cl [Example 1, hydrochloride]	RON kinase (Homo sapiens)	nM	0.51
COCCNCc1ccc(-c2cc3nccc(Oc4ccc(NC(=O)c5cc(Br)cn(-c6ccc(F)cc6)c5=O)cc4F)c3s2)nc1 [Example 23, Hydrochloride]	RON kinase (Homo sapiens)	nM	8.05

----------
Test system: RON-activated KM12C colon cancer cell line
Experiment: Cell killing efficacy, trypan blue exclusion assay, KM12C
Type: cell-based
Experimental conditions: 1 μM, 48 hours
Recorded metric: Cell death rate (Relative to Comp. Ex. 1)

Entry smiles	Reported
CCOc1ccn(-c2ccc(F)cc2)c(=O)c1C(=O)Nc1ccc(Oc2ccnc3cc(-c4ccc(CN5CCOCC5)cn4)sc23)c(F)c1.Cl	x 1.52
CCOc1ccn(-c2ccccc2)c(=O)c1C(=O)Nc1ccc(Oc2ccnc3cc(-c4ccc(CN5CCOCC5)cn4)sc23)c(F)c1.Cl	x 1.52

----------
Assayed system: RON kinase (Homo sapiens, UniProt Q04912)
Sequence (Q04912 25-1400): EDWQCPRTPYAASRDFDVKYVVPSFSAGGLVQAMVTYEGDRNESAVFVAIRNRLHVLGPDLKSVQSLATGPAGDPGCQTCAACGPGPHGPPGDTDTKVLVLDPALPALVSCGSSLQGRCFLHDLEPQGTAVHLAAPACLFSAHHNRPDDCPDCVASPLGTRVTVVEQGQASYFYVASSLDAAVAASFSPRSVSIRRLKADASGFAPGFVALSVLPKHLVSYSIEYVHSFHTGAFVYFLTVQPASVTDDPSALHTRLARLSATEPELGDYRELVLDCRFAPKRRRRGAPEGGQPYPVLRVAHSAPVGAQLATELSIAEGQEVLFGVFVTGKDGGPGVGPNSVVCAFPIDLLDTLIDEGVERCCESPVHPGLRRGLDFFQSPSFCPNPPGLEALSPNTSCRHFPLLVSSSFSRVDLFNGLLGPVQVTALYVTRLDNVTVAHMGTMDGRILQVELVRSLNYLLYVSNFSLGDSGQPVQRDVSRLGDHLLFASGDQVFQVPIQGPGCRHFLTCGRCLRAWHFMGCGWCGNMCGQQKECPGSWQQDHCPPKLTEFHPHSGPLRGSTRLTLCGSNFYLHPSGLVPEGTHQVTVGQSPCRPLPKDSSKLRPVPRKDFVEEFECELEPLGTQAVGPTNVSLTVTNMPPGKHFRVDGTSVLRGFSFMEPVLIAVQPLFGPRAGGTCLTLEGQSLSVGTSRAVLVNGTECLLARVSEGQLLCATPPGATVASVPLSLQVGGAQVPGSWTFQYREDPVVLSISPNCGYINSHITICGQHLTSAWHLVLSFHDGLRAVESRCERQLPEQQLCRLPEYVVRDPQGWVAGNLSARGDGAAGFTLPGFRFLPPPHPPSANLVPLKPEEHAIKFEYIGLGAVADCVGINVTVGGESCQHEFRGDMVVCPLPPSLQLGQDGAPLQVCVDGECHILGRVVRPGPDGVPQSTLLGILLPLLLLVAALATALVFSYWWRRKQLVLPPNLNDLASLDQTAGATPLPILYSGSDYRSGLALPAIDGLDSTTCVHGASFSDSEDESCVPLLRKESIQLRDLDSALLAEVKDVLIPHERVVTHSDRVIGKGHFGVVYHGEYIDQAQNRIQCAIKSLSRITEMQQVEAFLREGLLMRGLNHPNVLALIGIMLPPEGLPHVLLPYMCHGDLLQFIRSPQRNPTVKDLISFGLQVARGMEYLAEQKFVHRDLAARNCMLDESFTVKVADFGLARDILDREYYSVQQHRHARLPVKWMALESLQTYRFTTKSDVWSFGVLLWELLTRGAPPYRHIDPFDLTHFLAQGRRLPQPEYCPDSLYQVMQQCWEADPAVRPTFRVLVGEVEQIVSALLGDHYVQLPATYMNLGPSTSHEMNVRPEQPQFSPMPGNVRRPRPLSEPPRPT
pIC50: −log10 of the molar value. Where a name gives a salt, the structure may show the parent alone.

Molecule	pIC50
COCCNCc1ccc(-c2cc3nccc(Oc4ccc(NC(=O)c5ccnn(-c6ccccc6)c5=O)cc4F)c3s2)nc1 [Example 19, Hydrochloride]	8.44
COCCNCc1ccc(-c2cc3nccc(Oc4ccc(NC(=O)c5c(C)cnn(-c6ccc(F)cc6)c5=O)cc4F)c3s2)nc1 [Example 17, Hydrochloride]	8.80
CCOc1ccn(-c2ccc(F)cc2)c(=O)c1C(=O)Nc1ccc(Oc2ccnc3cc(-c4ccc(CNCCOC)cn4)sc23)c(F)c1.Cl [Example 7, Hydrochloride]	9.55

----------
Assayed system: RON kinase (Homo sapiens)
Construct: purchased Carna Bioscience
Experiment: RON kinase enzyme inhibitory activity, FRET (TR-FRET) technique
Assay type: biochemical
Experimental conditions: 60 min reaction
Structures can show the parent of a compound that is named as a salt.
Below, each entry is listed alongside its reported log10 of IC50.
Recorded metric: log10 of IC50 (log10 of the value in nM)

Compound	Assayed system	Recorded metric	Reported
CCOc1ccn(-c2ccc(F)cc2)c(=O)c1C(=O)Nc1ccc(Oc2ccnc3cc(-c4ccc(CN(CCOC)C(=O)OC(C)(C)C)cn4)sc23)c(F)c1 [Example 6]	RON kinase (Homo sapiens)	log10 of IC50	1.34
COCCNCc1ccc(-c2cc3nccc(Oc4ccc(NC(=O)c5ccc(C)n(-c6ccc(F)cc6)c5=O)cc4F)c3s2)nc1.Cl [Example 22, Hydrochloride]	RON kinase (Homo sapiens)	log10 of IC50	-0.36
CCOc1ccn(-c2ccc(Cl)cc2)c(=O)c1C(=O)Nc1ccc(Oc2ccnc3cc(-c4ccc(CNCCOC)cn4)sc23)c(F)c1.Cl [Example 8, Hydrochloride]	RON kinase (Homo sapiens)	log10 of IC50	-2.00
COCCNCc1ccc(-c2cc3nccc(Oc4ccc(NC(=O)c5cc(Cl)cn(-c6ccc(F)cc6)c5=O)cc4F)c3s2)nc1 [Example 24, Hydrochloride]	RON kinase (Homo sapiens)	log10 of IC50	1.38
CCOc1ccn(-c2ccc(F)cc2)c(=O)c1C(=O)Nc1ccc(Oc2ccnc(N)c2Cl)c(F)c1 [Comp. Ex. 1, reference compound]	RON kinase (Homo sapiens)	log10 of IC50	0.05
COCCNCc1ccc(-c2cc3nccc(Oc4ccc(NC(=O)c5c(C)cnn(-c6ccccc6)c5=O)cc4F)c3s2)nc1.Cl [Example 18, Hydrochloride]	RON kinase (Homo sapiens)	log10 of IC50	-0.11

----------
pIC50: −log10 of the molar value. Where a name gives a salt, the structure may show the parent alone.
The following are reported pIC50 results, target or system RON kinase (Homo sapiens, UniProt Q04912).

Compound	pIC50
COCCNCc1ccc(-c2cc3nccc(Oc4ccc(NC(=O)c5c(C)ccn(-c6ccccc6)c5=O)cc4F)c3s2)nc1.Cl [Example 28, Hydrochloride]	9.25
CCOc1ccn(-c2ccccc2)c(=O)c1C(=O)Nc1ccc(Oc2ccnc3cc(-c4ccc(CN5CCOCC5)cn4)sc23)c(F)c1.Cl [Example 32, Hydrochloride]	9.09
CCOc1ccn(-c2cccc(F)c2)c(=O)c1C(=O)Nc1ccc(Oc2ccnc3cc(-c4ccc(CNCCOC)cn4)sc23)c(F)c1.Cl [Example 14, Hydrochloride]	9.35
CCOc1ccn(-c2ccc(C(F)(F)F)cc2)c(=O)c1C(=O)Nc1ccc(Oc2ccnc3cc(-c4ccc(CNCCOC)cn4)sc23)c(F)c1 [Example 12, Hydrochloride]	8.68
CCOc1ccn(-c2ccc(F)cc2)c(=O)c1C(=O)Nc1ccc(Oc2ccnc3cc(-c4ccc(CNCCOC)cn4)sc23)cc1Cl [Example 26, Hydrochloride]	8.43
CCOc1ccn(-c2ccc(F)cc2)c(=O)c1C(=O)Nc1ccc(Oc2ccnc3cc(-c4ccc(CN5CCOCC5)cn4)sc23)cc1Cl [Example 37, Hydrochloride]	7.99

----------
pIC50: −log10 of the molar value. Counter-ions that a name gives are not always drawn.
Recorded pIC50 values (RON kinase (Homo sapiens)) are given below.
Recorded metric: pIC50

Compound	Recorded metric	Reported
COCCNCc1ccc(-c2cc3nccc(Oc4ccc(NC(=O)c5c(OC)ccn(-c6ccc(Cl)cc6)c5=O)cc4F)c3s2)nc1 [Example 13, Hydrochloride]	pIC50	8.94
COCCNCc1ccc(-c2cc3nccc(Oc4ccc(NC(=O)c5c(OC)ccn(-c6ccc(F)cc6)c5=O)cc4F)c3s2)nc1.Cl [Example 2, Hydrochloride]	pIC50	10.00
COCCNCc1ccc(-c2cc3nccc(Oc4ccc(NC(=O)c5ccnn(-c6ccc(F)cc6)c5=O)cc4F)c3s2)nc1.Cl [Example 20, Hydrochloride]	pIC50	8.61

----------
Assayed system: RON kinase (Homo sapiens, UniProt Q04912)
pIC50: −log10 of the molar value. Where a name gives a salt, the structure may show the parent alone.
Threshold rule: pIC50 greater than or equal to 9 is rule met; below that, rule not met.

Compound	Assayed system	Class
CCOc1ccn(-c2ccc(F)cc2)c(=O)c1C(=O)Nc1ccc(Oc2ccnc3cc(-c4ccc(CN5CCN(C)CC5)cn4)sc23)c(F)c1.Cl [Example 33, Hydrochloride]	RON kinase (Homo sapiens, UniProt Q04912)	rule met
COCCNCc1ccc(-c2cc3nccc(Oc4ccc(NC(=O)c5c(OC)ccn(-c6ccccc6)c5=O)cc4F)c3s2)nc1.Cl [Example 3, Hydrochloride]	RON kinase (Homo sapiens, UniProt Q04912)	rule met
CCOc1ccn(-c2ccc(F)cc2)c(=O)c1C(=O)Nc1ccc(Oc2ccnc3cc(-c4ccc(CN5CCOCC5)cn4)sc23)c(Cl)c1 [Example 36, Hydrochloride]	RON kinase (Homo sapiens, UniProt Q04912)	rule not met
COCCNCc1ccc(-c2cc3nccc(Oc4ccc(NC(=O)c5cc(C)c(C)n(-c6ccc(F)cc6)c5=O)cc4F)c3s2)nc1 [Example 27, Hydrochloride]	RON kinase (Homo sapiens, UniProt Q04912)	rule not met
Cc1ccc(C(=O)Nc2ccc(Oc3cc4cnn(C)c4cc3-c3cn[nH]c3)c(F)c2)c(=O)n1-c1ccc(F)cc1 [Comp. Ex. 3, reference compound]	RON kinase (Homo sapiens, UniProt Q04912)	rule not met
COCCNCc1ccc(-c2cc3nccc(Oc4ccc(NC(=O)c5c(OC)ccn(-c6ccc(F)cc6)c5=O)c(Cl)c4)c3s2)nc1 [Example 10, Hydrochloride]	RON kinase (Homo sapiens, UniProt Q04912)	rule not met
COCCNCc1ccc(-c2cc3nccc(Oc4ccc(NC(=O)c5c(OC)ccn(-c6ccc(F)cc6)c5=O)cc4Cl)c3s2)nc1.Cl [Example 9, Hydrochloride]	RON kinase (Homo sapiens, UniProt Q04912)	rule met
COCCNCc1ccc(-c2cc3nccc(Oc4ccc(NC(=O)c5c(OC)ccn(-c6ccc(F)cc6)c5=O)cc4)c3s2)nc1.Cl [Example 11, Hydrochloride]	RON kinase (Homo sapiens, UniProt Q04912)	rule met
COc1ccc2c(Oc3ccc(NC(=O)c4c(C)n(CC(C)(C)O)n(-c5ccccc5)c4=O)cc3F)ccnc2c1 [Comp. Ex. 2, reference compound]	RON kinase (Homo sapiens, UniProt Q04912)	rule not met

----------
Tested on: KM12C cells
Experiment: Cytotoxicity MTS assay, KM12C
Type: cell-based
Experimental conditions: Homo sapiens, 72 hours
Reported IC50 by item:
Recorded metric: IC50

Compound	Assayed system	Reported
CCOc1ccn(-c2ccc(F)cc2)c(=O)c1C(=O)Nc1ccc(Oc2ccnc3cc(-c4ccc(CN5CCN(C)CC5)cn4)sc23)c(F)c1.Cl [Example 33, Hydrochloride]	KM12C cells	0.009 µM
COCCNCc1ccc(-c2cc3nccc(Oc4ccc(NC(=O)c5ccnn(-c6ccc(F)cc6)c5=O)cc4F)c3s2)nc1.Cl [Example 20, Hydrochloride]	KM12C cells	0.01 µM
COCCNCc1ccc(-c2cc3nccc(Oc4ccc(NC(=O)c5c(C)ccn(-c6ccccc6)c5=O)cc4F)c3s2)nc1.Cl [Example 28, Hydrochloride]	KM12C cells	0.059 µM
CCOc1ccn(-c2ccc(F)cc2)c(=O)c1C(=O)Nc1ccc(Oc2ccnc(N)c2Cl)c(F)c1 [Comp. Ex. 1, reference compound]	KM12C cells	0.511 µM
COCCNCc1ccc(-c2cc3nccc(Oc4ccc(NC(=O)c5c(C)ccn(-c6ccc(F)cc6)c5=O)cc4F)c3s2)nc1.Cl [Example 25, Hydrochloride]	KM12C cells	0.025 µM
COCCNCc1ccc(-c2cc3nccc(Oc4ccc(NC(=O)c5ccc(C)n(-c6ccccc6)c5=O)cc4F)c3s2)nc1.Cl [Example 21, Hydrochloride]	KM12C cells	1.5 µM
COCCNCc1ccc(-c2cc3nccc(Oc4ccc(NC(=O)c5ccc(C)n(-c6ccc(F)cc6)c5=O)cc4F)c3s2)nc1.Cl [Example 22, Hydrochloride]	KM12C cells	0.001 µM
